Entry source: the supplement of paper PMC10567573

- ASSAY_EXPLANATION: protein stability index of a GFP-peptide fusion (GPS, HEK-293T) (PSI 1-6); higher = more stable;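 also: 24-mer peptide tiles fused after GFP, lentivirally expressed, FACS-sorted into six equal bins by GFP/DsRed ratio, decoded by Illumina sequencing, PSI is the read-weighted mean bin number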
- EXPERIMENTAL_CONTEXT: treatment: MLN4924 1 uM, 8 h; c terminus: a fixed tail appended
Measured protein stability index, listed per entry for reference.
Please respond with just the number, no unit label.

Sample records with protein stability index:
### Prompt Please report the recorded protein stability index for GEEQSQYMHVGSCQHLSSSAEELR [KCNA3] .
### Response 4.52

### Prompt Could you tell me which protein stability index is on file for HTTLQCLAARVIVNHRIYYKGHIP [FEM1C] ?
### Response 2.43

### Prompt For WKEWGFTGVQEVLSALLRATPGEY [SPAG8] , what is its reported protein stability index?
### Response 2.2

### Prompt Can you share its protein stability index? I mean this sequence: EVLEWYTAKDFIVGKSLTILGRTF [EFHC1]
### Response 2.62

### Prompt Which protein stability index is reported for this sequence? LVQLRNMVQQIQENSVEFEACLVA [TRIM9]
### Response 2.54

### Prompt Consider the sequence shown here: CMSFNPETRRLSIGLDNGTISEFI [WDFY2] What is its recorded protein stability index?
### Response 2.89

New cases:
### Prompt Requested field: protein stability index. Item: CPVVRNGSVAVVEAECEKSSATTY [SLC6A17]
### Response 4.82

### Prompt Given GKGRTASPINSPARGTPSPKRMPS [FSD1] , state its recorded protein stability index.
### Response 5.05

----------
Recorded protein stability index for the following sequences
- ASSAY_EXPLANATION: protein stability index of a GFP-peptide fusion (GPS, HEK-293T) (PSI 1-6); higher = more stable
- EXPERIMENTAL_CONTEXT: treatment: DMSO; c terminus: a fixed tail appended
No unit in the answer, please; the number alone is enough.

// worked examples, protein stability index included
### Prompt Can you look up the measured protein stability index of DAWSGSNAYHIERLMSFRPICSAN [CRYBA1] for me?
### Response 2.46

### Prompt Param item = NGCEVKNRKSILSRHLNSQVKKTT [PHTF1] ; retrieve measured protein stability index.
### Response 3.95

### Prompt I am curious: what protein stability index value has been reported for VISKKAKVKVPQKTAGKENHFDMH [ZNF75A] ?
### Response 3.08

Please examine the following record next.
### Prompt I am curious: what protein stability index value has been reported for KEFQQVFIPECNDDGTYSQVQCHS [SMOC2] ?
### Response 4.01

----------
Quick reference for protein stability index among some sequences
- ASSAY_EXPLANATION: protein stability index of a GFP-peptide fusion (GPS, HEK-293T) (PSI 1-6); higher = more stable
- EXPERIMENTAL_CONTEXT: treatment: MLN4924 1 uM, 8 h; c terminus: a fixed tail appended
Give your answer as a number; write no unit.

### Prompt Please report the recorded protein stability index for DALNRRKAQLLARVNKEHEHKLKV [TRIM9] .
### Response 3.29

Further cases:
### Prompt Sample QRRSMVSPNFGFMGQLLQYESEIL [DUSP5] — what was its protein stability index?
### Response 2.45

### Prompt # lookup: protein stability index of MAGAATGSRTPGRSELVEGCGWRC [TRIM14]
### Response 3.61

### Prompt Name the reported protein stability index value associated with the sequence CDECGKHFSQGSALILHQRIHSGE [ZNF24]
### Response 5.43

### Prompt Field request: protein stability index | item: PAFDALGQLTGGYKPNPQIYVKLI [OAS1]
### Response 2.15

### Prompt Would you mind telling me what protein stability index value was observed for NCFEITLELSCDKFPPEEELQREW [CPN1] ?
### Response 3.1

### Prompt Requested read-out: protein stability index. Entry: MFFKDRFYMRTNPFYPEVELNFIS [MMP1]
### Response 2.71

----------
Measured protein stability index by item
- ASSAY_EXPLANATION: protein stability index of a GFP-peptide fusion (GPS, HEK-293T) (PSI 1-6); higher = more stable
- EXPERIMENTAL_CONTEXT: treatment: DMSO; c terminus: a fixed tail appended
Give only the figure.

### Prompt Request the reported protein stability index associated with HHFNSSHLEIDDMYTPAYGDFDFD [MYORG]
### Response 4.34

### Prompt I am curious: what protein stability index value has been reported for IEKEYQPHVIVSTTGPNPFTTLTD [ADD1] ?
### Response 3.74

### Prompt Can you look up the measured protein stability index of SHRVVLRPRGKERHKSGVHQPPQA [LYSMD4] for me?
### Response 3.91

New cases:
### Prompt Look up protein stability index: NNTLVALPIVAIENILSFMSYDEI [FBXO28]
### Response 3.22

### Prompt // lookup protein stability index for AQALRQELERQRRLLGSVQQDLER [PBXIP1]
### Response 4.08

### Prompt For SPDGALLATASYDTRVYIWDPHNG [WSB1] , what is its reported protein stability index?
### Response 2.5

### Prompt // query protein stability index value for entry DDKLFQKLAKVYSYAHGWMFQGWN [CPN1]
### Response 2.45

### Prompt Can you look up the measured protein stability index of AEGSPGGPGDSQGRKRRQTSMTDF [CDKN1A] for me?
### Response 5.23

### Prompt Param item = YDASAIDFSRCDMDGATLCNCALE [ELF3] ; retrieve measured protein stability index.
### Response 3.99

----------
- ASSAY_EXPLANATION: protein stability index of a GFP-peptide fusion (GPS, HEK-293T) (PSI 1-6); higher = more stable
- EXPERIMENTAL_CONTEXT: treatment: DMSO; c terminus: a fixed tail appended
Recorded protein stability index, one value per entry.

Here is how some sequences turned out for protein stability index.
### Prompt Which value of protein stability index has been reported for VHYLHSKRIAHFDLKPENIMLLDK [DAPK3] in the records?
### Response 2.33

### Prompt Suppose we examine the sequence IFNVAIPRFHMACPTFRVSIARLE [FBXO3] ; what protein stability index value has been reported?
### Response 2.19

### Prompt Can you look up the measured protein stability index of QAIYVIDFFWNETWYLKTIDICHD [DHCR7] for me?
### Response 3.14

### Prompt protein stability index for QQLRRGRYVEFNLLYDRGTKFGLF [CPOX] ?
### Response 2.52

### Prompt Form field: reported protein stability index of LRLCAWGLASWPLARGIHVAGILS [POMT2]
### Response 2.3

### Prompt Request the reported protein stability index associated with HMVRESKIMEAESQKATRECEKSA [FAN1]
### Response 5.29

### Prompt Could you tell me which protein stability index is on file for GHLEVVRYLVGEHQADLEVANRHG [FEM1A] ?
### Response 3.4

### Prompt Give its protein stability index value. Item: SAEQLKAQAIDFINRCSVLRQLGC [SPOPL]
### Response 2.21

New cases:
### Prompt Which protein stability index is reported for this sequence? THLLMGLAGGKLILSLEGGYNLRA [HDAC6]
### Response 3.08

### Prompt May I ask what protein stability index has been recorded for QEIMEKYNIKLKWTNQQKLYSRTG [CFHR2] ?
### Response 2.45

### Prompt Look at this sequence and give its reported protein stability index. ALQAPHSPSKTDGKELAGTMDGEG [PBXIP1]
### Response 5.25

### Prompt Can you share its protein stability index? I mean this sequence: NLNAATDDPENKKTSSSSKAGFTA [CDC14A]
### Response 5.17

### Prompt Sample IDEVRTQYEEIALKSKAEAEALYQ [KRT71] — what was its protein stability index?
### Response 4.77

----------
- ASSAY_EXPLANATION: protein stability index of a GFP-peptide fusion (GPS, HEK-293T) (PSI 1-6); higher = more stable
- EXPERIMENTAL_CONTEXT: treatment: MLN4924 1 uM, 8 h; c terminus: a fixed tail appended
Items are presented alongside their recorded protein stability index.
Give your answer as a number; write no unit.

As a guide, the following entries are already answered.
### Prompt Given the entry EQLREALHEALLEYEAGRAGPGGG [ESRRA] , report its measured protein stability index.
### Response 4.05

### Prompt Which protein stability index value is on record for QAIYVIDFFWNETWYLKTIDICHD [DHCR7] ?
### Response 3.25

### Prompt # lookup: protein stability index of LSVQQPTALALEPDAIRSRSNTLR [PCDHGC5]
### Response 4.56

### Prompt Could you tell me which protein stability index is on file for HRERVAMHYQMSVTLKYEIKKLIY [JAGN1] ?
### Response 2.92

### Prompt Form field: reported protein stability index of APRFNQQLYTAYILENRPPGSLLC [PCDHGC5]
### Response 2.07

### Prompt Fill blank: measured protein stability index of the sequence TIILQQLLPLRTKVAKLLGYSTHA [NLN] is ____.
### Response 1.92

Others:
### Prompt # input sequence: QARTQKLQGLIPGARYEVTVVSVR [TNXB] ; wanted: its protein stability index
### Response 2.22

### Prompt // protein stability index lookup, key: SIPVTELSASGPFESHDLLRKGFS [POMP]
### Response 3.39

### Prompt # get_value(readout='protein stability index', item= APGRPGHPSGHWATCRLCGEQVGR [ZBED3] )
### Response 2.81
